Test system: cysteine peptide Ac-RFAACAA-COOH
Procedure Details: AC50 of cysteine peptide concentration-response (direction given by sign of efficacy); higher = less potent
Settings: incubation time: 24 h
Listed molecules paired with reported AC50
Enter your answer as a number in µM; do not include the unit.

• Cl/C=C\C[N+]12CN3CN(CN(C3)C1)C2 [Chloroallyl methenamine chloride] = 19.6
• c1cc(N(CC2CO2)CC2CO2)ccc1OCC1CO1 (stereo not drawn) = 20.3
• O=C(CS)Nc1ccccc1 [Thioglycolic acid anilide] = 2.54
• N#Cc1nc(Cl)c(Cl)c(Cl)c1Cl = 66.8
• Nc1cc(-c2ccncc2)c[nH]c1=O = 31

# input molecule: c1ccc(CCNc2nc(-c3ccccc3)cs2)cc1 ; wanted: its AC50
40

GET /values?readout=AC50&item= c1ccc(Nc2ccc(Nc3ccccc3)cc2)cc1
23

Record request: AC50 value, item CC(C)CCCCCCCOC(=O)c1ccc(C(=O)OCCCCCCCC(C)C)c(C(=O)OCCCCCCCC(C)C)c1 [Triisodecyl trimellitate]
19.9

---

System: KeratinoSens (HaCaT ARE-luciferase) cells
Procedure Details: AC50 of Nrf2/ARE luciferase induction; higher = less potent
Settings: exposure time: 24 h
Metric: AC50 of Nrf2/ARE luciferase induction (µM)
Number in µM, nothing else.

The cases that follow already have their AC50 of Nrf2/ARE luciferase induction on record.
• O=CC(=O)c1ccccc1 [Phenyl glyoxal] = 35.5
• O=C(NS(=O)(=O)/C=C/c1ccccc1)c1ccc(F)cc1Cl = 38.7
• S=C=NCc1ccccc1 [BENZYL ISOTHIOCYANATE] = 24.8

Which AC50 of Nrf2/ARE luciferase induction is reported for this compound? Cc1ccc2c(c1[N+](=O)[O-])C(=O)c1ccccc1C2=O [2-Methyl-1-nitroanthraquinone]
34.8

Which value of AC50 of Nrf2/ARE luciferase induction has been reported for Nc1ccc2cc3ccc(N)cc3nc2c1 [Proflavin hemisulfate#] in the records?
7.94

What value of AC50 of Nrf2/ARE luciferase induction has been recorded for this entry: Nc1ncn([C@@H]2O[C@H](CO)[C@@H](O)[C@H]2O)c(=O)n1 [5-Azacytidine]
18.9

Entry under review: COP(=O)(OC)O/C(=C\Cl)c1cc(Cl)c(Cl)cc1Cl [Z-Tetrachlorvinphos] . Reported AC50 of Nrf2/ARE luciferase induction?
41.8

---

Tested on: cysteine peptide Ac-RFAACAA-COOH
Procedure Details: AC50 of cysteine peptide concentration-response (direction given by sign of efficacy); higher = less potent
Settings: incubation time: 24 h
# strict inequality: AC50 < 10 µM yields yes, everything else yields no

- Cc1occc1S: no
- CCOP(=S)(OCC)Oc1nc(Cl)c(Cl)cc1Cl: yes
- O=C(CCl)CCl: no
- CCCCC/C=C\C=C\C(=O)OCC [Ethyl (2E,4Z)-deca-2,4-dienoate]: no

Does the reported AC50 of the following compound sit strictly below 10 µM? Clc1ccc2c(c1)Nc1ccccc1S2
yes
